subject-of-test: full length human RIP2 (Homo sapiens)
Sequence (O43353 whole entry): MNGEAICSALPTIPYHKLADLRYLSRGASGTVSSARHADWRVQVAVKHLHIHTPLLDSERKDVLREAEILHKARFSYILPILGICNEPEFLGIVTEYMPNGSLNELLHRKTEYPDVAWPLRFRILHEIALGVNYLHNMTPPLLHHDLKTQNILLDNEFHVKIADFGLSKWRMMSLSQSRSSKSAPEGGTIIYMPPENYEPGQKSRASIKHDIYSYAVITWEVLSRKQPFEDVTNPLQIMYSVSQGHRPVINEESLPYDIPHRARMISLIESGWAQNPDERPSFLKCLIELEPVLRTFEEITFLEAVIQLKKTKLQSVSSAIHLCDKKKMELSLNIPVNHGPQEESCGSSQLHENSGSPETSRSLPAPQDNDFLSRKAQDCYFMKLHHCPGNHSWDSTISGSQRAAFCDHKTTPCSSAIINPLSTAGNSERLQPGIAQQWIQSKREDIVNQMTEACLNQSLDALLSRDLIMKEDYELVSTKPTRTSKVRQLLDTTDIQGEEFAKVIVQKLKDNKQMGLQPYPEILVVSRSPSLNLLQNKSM
value-kind: IC50

molecule: CCc1ccc(S(=O)(=O)Nc2cc(-n3c(C)nc4ccccc4c3=O)ccc2F)s1 [GSK223]
IC50: > 50 µM

molecule: Cc1ccc(S(=O)(=O)Nc2cccc(C(=O)Nc3ccc4nc(C)sc4c3)c2)cc1 [Compound 16]
IC50: > 50 µM

--- query ---
Query IC50 on full length human RIP2 (Homo sapiens) for Cc1nc2ccc(NC(=O)c3cccc(NS(=O)(=O)c4ccc(F)cc4)c3)cc2s1 [GSK966] > 100 µM

###

subject-of-test: NOD1 (Homo sapiens, UniProt Q9Y239)
Sequence (Q9Y239 1-953): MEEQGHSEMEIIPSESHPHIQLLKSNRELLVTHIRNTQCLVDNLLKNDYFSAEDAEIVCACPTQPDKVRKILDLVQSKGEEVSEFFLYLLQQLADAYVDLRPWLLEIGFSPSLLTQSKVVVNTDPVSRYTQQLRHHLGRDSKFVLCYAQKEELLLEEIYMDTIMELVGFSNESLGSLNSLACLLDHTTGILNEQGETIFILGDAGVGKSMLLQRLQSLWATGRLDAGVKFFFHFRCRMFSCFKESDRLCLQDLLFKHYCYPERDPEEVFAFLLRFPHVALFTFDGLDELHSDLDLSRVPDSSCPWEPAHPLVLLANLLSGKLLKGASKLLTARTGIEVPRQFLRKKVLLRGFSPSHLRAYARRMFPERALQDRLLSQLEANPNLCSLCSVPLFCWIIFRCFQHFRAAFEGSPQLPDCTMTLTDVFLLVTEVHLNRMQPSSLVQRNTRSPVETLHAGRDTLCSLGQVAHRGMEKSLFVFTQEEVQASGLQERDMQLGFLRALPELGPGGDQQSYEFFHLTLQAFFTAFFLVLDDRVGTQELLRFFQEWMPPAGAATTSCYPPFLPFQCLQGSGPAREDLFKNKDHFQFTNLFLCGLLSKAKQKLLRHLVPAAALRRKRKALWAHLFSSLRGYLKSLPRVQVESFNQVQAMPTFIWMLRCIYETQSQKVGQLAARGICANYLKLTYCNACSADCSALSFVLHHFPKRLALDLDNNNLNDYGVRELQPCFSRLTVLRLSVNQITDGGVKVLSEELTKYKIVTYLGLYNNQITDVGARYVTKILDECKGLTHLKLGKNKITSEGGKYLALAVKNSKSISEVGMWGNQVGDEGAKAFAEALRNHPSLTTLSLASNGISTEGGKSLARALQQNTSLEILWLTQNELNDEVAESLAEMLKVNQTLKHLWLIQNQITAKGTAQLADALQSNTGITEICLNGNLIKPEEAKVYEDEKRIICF
measurement-description: iE-DAP-stimulated IL-8 release in 293/hNOD1 cells
Assay type: cell-based
run-conditions: iE-DAP-stimulated IL-8 production in 293/hNOD1 cells; SAR figures; read-out: NOD1 XC50
value-kind: IC50 (µM)

Record excerpt, results attached:
compound: Cc1ccc(S(=O)(=O)Nc2cccc(C(=O)Nc3nc4ccc([N+](=O)[O-])cc4s3)c2)cc1 [Compound 15]
endpoint-unit: µM
IC50: 0.19

compound: Cn1c(=O)[nH]c(=O)c2c1nc(SCc1ccccc1)n2Cc1ccccc1 [Compound 7]
endpoint-unit: µM
IC50: 37.3

P: N#Cc1ccc(-c2csc(NC(=O)c3cccc(NS(=O)(=O)c4ccc(Cl)cc4)c3)n2)cc1 [Compound 19]
Q: COc1ccc(Cl)cc1S(=O)(=O)Nc1cc(-n2c(C)nc3ccccc3c2=O)ccc1Cl [Compound 25]
Could you kindly indicate whether P or Q has the higher IC50 value? Answer by stating the label of the chosen item. P

###

subject-of-test: NOD1 (Homo sapiens, UniProt Q9Y239)
measurement-description: iE-DAP-stimulated IL-8 release in 293/hNOD1 cells
Type: cell-based
run-conditions: iE-DAP-stimulated IL-8 production in 293/hNOD1 cells; SAR figures; read-out: NOD1 XC50
pIC50: −log10 of the molar value.
value-kind: pIC50

molecule: Cn1c(=O)[nH]c(=O)c2c1nc(SCCCc1ccccc1)n2Cc1ccccc1 [Compound 4]
subject-of-test: NOD1 (Homo sapiens, UniProt Q9Y239)
pIC50: 5.06
//
molecule: COc1ccc(S(=O)(=O)Nc2cccc(C(=O)Nc3ccc4nc(C)sc4c3)c2)cc1 [Compound 20]
subject-of-test: NOD1 (Homo sapiens, UniProt Q9Y239)
pIC50: 5.64

A: Cn1c(=O)[nH]c(=O)c2c1nc(CCCSc1ccccc1)n2Cc1ccccc1 [Compound 2]
B: Cc1ccc(S(=O)(=O)Nc2cc(-n3c(C)nc4ccccc4c3=O)ccc2F)cc1C [Compound 11]
Choose between A and B : whose measured pIC50 value is numerically larger? Could you answer with the label of the item you picked? B
(B: 5.96, A: 5.60)

###

measurement-description: Permeability across an artificial membrane
Format: in vitro ADME
run-conditions: PAMPA
value-kind: Papp (×10⁻⁶ cm/s)

These recorded examples may help you get a feel for the data.
compound: CCc1ccc(S(=O)(=O)Nc2cc(-n3c(C)nc4ccccc4c3=O)ccc2F)s1 [GSK223]
Papp [×10⁻⁶ cm/s]: 49

compound: Cc1nc2ccccc2c(=O)n1-c1ccc(F)c(NS(=O)(=O)c2cccs2)c1 [Compound 13]
Papp [×10⁻⁶ cm/s]: 26

compound: Cc1ccc(S(=O)(=O)Nc2cccc(C(=O)Nc3ccc4nc(C)sc4c3)c2)cc1 [Compound 16]
Papp [×10⁻⁶ cm/s]: 22

compound: Cc1nc2ccc(NC(=O)c3cccc(NS(=O)(=O)c4ccc(F)cc4)c3)cc2s1 [GSK966]
Papp [×10⁻⁶ cm/s]: 30

P: O=C(Nc1ccc2c(c1)OCO2)c1cccc(NS(=O)(=O)c2ccc(Cl)cc2)c1 [Compound 21]
Q: Cc1nc2ccccc2c(=O)n1-c1ccc(F)c(NS(=O)(=O)c2ccccc2F)c1 [Compound 8]
Look at P and Q . Which one has the lower recorded Papp number? // return label of chosen record P
(P: 23 ×10⁻⁶ cm/s, Q: 35 ×10⁻⁶ cm/s)

###

Tested on: α1-acid glycoprotein
measurement-description: α1-acid glycoprotein (AGP) binding
Assay type: in vitro ADME
value-kind: AGP binding (%)

smiles-repr: Cc1nc2ccc(NC(=O)c3cccc(NS(=O)(=O)c4ccc(F)cc4)c3)cc2s1
endpoint-unit: %
AGP binding: 83.38
//
smiles-repr: Cc1nc2ccccc2c(=O)n1-c1ccc(F)c(NS(=O)(=O)c2cccs2)c1
endpoint-unit: %
AGP binding: 81.23
//
smiles-repr: CCc1ccc(S(=O)(=O)Nc2cc(-n3c(C)nc4ccccc4c3=O)ccc2F)s1
endpoint-unit: %
AGP binding: 80.81
//
smiles-repr: Cc1ccc(S(=O)(=O)Nc2cccc(C(=O)Nc3ccc4nc(C)sc4c3)c2)cc1
endpoint-unit: %
AGP binding: 85.71
//
smiles-repr: Cc1nc2ccccc2c(=O)n1-c1ccc(F)c(NS(=O)(=O)c2ccccc2F)c1
endpoint-unit: %
AGP binding: 80.38
//
smiles-repr: O=C(Nc1ccc2c(c1)OCO2)c1cccc(NS(=O)(=O)c2ccc(Cl)cc2)c1
endpoint-unit: %
AGP binding: 87.41

###

subject-of-test: endogenous NOD1 (Homo sapiens, UniProt Q9Y239)
Construct: Compound activity on endogenous NOD1 and NOD2 receptors was determined
measurement-description: Tri-DAP-stimulated IL-8 release in HCT116 cells
run-conditions: human colon carcinoma cells, IL-8 released into medium
value-kind: IC50 (nM)

Before answering, review these 3 worked examples.
smiles-repr: Cc1ccc(S(=O)(=O)Nc2cccc(C(=O)Nc3ccc4nc(C)sc4c3)c2)cc1
value-kind: IC50
numeric-value: 60

smiles-repr: CCc1ccc(S(=O)(=O)Nc2cc(-n3c(C)nc4ccccc4c3=O)ccc2F)s1
value-kind: IC50
numeric-value: 400

smiles-repr: Cn1c(=O)[nH]c(=O)c2c1nc(CCSc1ccccc1)n2Cc1ccccc1
value-kind: IC50
numeric-value: 900

a: Cc1nc2ccc(NC(=O)c3cccc(NS(=O)(=O)c4ccc(F)cc4)c3)cc2s1
b: Cc1nc2ccccc2c(=O)n1-c1ccc(Cl)c(NS(=O)(=O)c2ccccc2F)c1
// task: argmin of IC50 over [ a , b ] Lab log: write the label of the selected item as the result. b

###

measurement-description: Immobilized artificial membrane (IAM) binding
Assay type: physicochemical
Excerpt: Physicochemical analyses of compounds were completed at GSK.
value-kind: IAM binding (log K)

smiles-repr: Cc1nc2ccc(NC(=O)c3cccc(NS(=O)(=O)c4ccc(F)cc4)c3)cc2s1
numeric-value: 2.38
//
smiles-repr: Cc1nc2ccccc2c(=O)n1-c1ccc(F)c(NS(=O)(=O)c2cccs2)c1
numeric-value: 1.36
//
smiles-repr: CCc1ccc(S(=O)(=O)Nc2cc(-n3c(C)nc4ccccc4c3=O)ccc2F)s1
numeric-value: 1.68
//
smiles-repr: Cn1c(=O)[nH]c(=O)c2c1nc(CCSc1ccccc1)n2Cc1ccccc1
numeric-value: 2.41

1: Cc1ccc(S(=O)(=O)Nc2cccc(C(=O)Nc3ccc4nc(C)sc4c3)c2)cc1
2: Cc1nc2ccccc2c(=O)n1-c1ccc(F)c(NS(=O)(=O)c2ccccc2F)c1
Pick the one with the larger IAM binding: 1 vs 2 Please identify the chosen entry by its label. 1
